study target: human mGluR5A (Homo sapiens)
Construct: expressed in transfected cells; host or cells: CHO (Chinese Hamster Ovary) cells, kept under Puromycin and Zeocin selection
Sequence (P41594 21-1180 isoform P41594-2 limits assumed): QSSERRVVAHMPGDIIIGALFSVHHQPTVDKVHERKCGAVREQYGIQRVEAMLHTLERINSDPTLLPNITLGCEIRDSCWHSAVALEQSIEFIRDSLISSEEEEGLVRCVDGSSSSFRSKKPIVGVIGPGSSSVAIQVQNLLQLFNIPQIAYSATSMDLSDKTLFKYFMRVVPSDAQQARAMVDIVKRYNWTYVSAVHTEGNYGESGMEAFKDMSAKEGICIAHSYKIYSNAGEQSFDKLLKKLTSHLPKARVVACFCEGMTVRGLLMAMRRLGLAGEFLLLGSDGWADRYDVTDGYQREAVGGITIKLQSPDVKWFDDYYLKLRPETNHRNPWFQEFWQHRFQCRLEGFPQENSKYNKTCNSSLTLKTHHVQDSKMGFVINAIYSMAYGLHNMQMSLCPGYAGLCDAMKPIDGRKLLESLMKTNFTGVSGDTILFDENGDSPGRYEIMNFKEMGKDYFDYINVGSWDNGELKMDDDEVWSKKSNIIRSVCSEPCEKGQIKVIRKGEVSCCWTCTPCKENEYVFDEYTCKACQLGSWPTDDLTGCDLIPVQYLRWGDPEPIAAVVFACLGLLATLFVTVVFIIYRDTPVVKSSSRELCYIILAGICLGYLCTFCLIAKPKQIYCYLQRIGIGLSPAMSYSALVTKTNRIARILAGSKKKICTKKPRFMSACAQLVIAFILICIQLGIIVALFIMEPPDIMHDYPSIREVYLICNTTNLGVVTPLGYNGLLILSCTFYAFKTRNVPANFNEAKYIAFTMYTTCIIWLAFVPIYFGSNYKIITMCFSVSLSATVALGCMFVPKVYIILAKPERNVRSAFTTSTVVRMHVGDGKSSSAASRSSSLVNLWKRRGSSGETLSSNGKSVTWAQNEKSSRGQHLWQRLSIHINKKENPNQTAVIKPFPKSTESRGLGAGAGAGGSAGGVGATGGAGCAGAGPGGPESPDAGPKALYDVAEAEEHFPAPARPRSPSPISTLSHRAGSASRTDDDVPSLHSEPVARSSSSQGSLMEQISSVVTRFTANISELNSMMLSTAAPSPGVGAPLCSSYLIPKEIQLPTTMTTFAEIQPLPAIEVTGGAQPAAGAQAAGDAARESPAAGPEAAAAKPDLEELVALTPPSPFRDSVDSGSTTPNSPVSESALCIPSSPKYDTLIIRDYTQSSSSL
procedure details: Fluorescent Ca2+ mobilization (FLIPR) assay, potentiation of a sub-threshold (EC20, 300 nM) glutamate response
Format: cell-based
setup conditions: CHO cells expressing human mGluR5A; potentiation in the presence of 300 nM glutamate; inflection points; read-out: Representative FLIPR EC50 Values
Experimental: The utility of the compounds in accordance with the present invention as positive allosteric modulators of metabotropic glutamate receptor activity, in particular mGluR5 activity, may be readily determined without undue experimentation by methodology well known in the art, including O'Brien et al., Molecular Pharmacology 2003, 64(3) 731-740. […] The day of the experiment, the cells were washed with 37° C. […] The response was then monitored for an additional 3 minutes. […]
property name: EC50 (nM)

Consider the reported EC50 for these molecules:
// EC50 value for O=C1c2ccccc2OC[C@@H]2CC[C@H](c3nc(-c4cc(Cl)c[nH]4)no3)CN12 [Example 11-8] : 71

// EC50 value for N#Cc1ccc2c(c1)CCC1CCC(c3nc(-c4cc(Cl)c[nH]4)no3)CN1C2=O (racemic) [Example 18-1] : 50

// EC50 value for O=C1c2ccc(F)cc2CC[C@@H]2CC[C@H](c3nc(-c4cc(Cl)c[nH]4)no3)CN12 [Example 3-1] : 8

[a] Cc1c[nH]c(-c2noc([C@H]3CC[C@H]4CCc5ccccc5C(=O)N4C3)n2)c1 [Example 1-5]
[b] Cc1c[nH]c(-c2noc(C3CCC4C=Cc5ccccc5C(=O)N4C3)n2)c1 (racemic) [Example 7-7]
Data request: Would you let me know which has the greater EC50 value, a or b ? Label of pick, please.
Data returned: b
(b: 31 nM, a: 16 nM)
